Molecular target: human recombinant ETA receptors (Homo sapiens)
Sequence (P25101 21-427): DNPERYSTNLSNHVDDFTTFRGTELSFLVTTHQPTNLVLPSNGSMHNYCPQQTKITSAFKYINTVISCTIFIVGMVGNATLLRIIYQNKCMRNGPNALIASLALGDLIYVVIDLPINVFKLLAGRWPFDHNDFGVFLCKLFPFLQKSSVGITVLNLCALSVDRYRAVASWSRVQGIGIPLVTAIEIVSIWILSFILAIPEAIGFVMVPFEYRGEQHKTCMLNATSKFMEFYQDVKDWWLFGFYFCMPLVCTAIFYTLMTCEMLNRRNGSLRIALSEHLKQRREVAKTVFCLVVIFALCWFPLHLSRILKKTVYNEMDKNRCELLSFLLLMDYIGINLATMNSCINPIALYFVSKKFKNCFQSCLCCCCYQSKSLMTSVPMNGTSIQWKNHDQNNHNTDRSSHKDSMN
Assay: Inhibition of [125I]ET-1 binding to membranes from CHO cells carrying human ETA receptors
value_kind: IC50
Write the quantity with the unit trailing the number.

I'd like to know its IC50. The compound in question is O=C(O)CCNS(=O)(=O)Nc1ncnc(OCCOc2ncc(Br)cn2)c1-c1ccc(Br)cc1 [Example 2]
0.656 nM

Cool, now O=S(=O)(NCCCO)Nc1ncnc(OCCOc2ncc(Br)cn2)c1-c1ccc(Br)cc1 [Example 1]
0.603 nM
